The reader will find reported growth values listed item by item below.
# Test system: SF-295 CNS
# Assay remarks: NCI-60 one-dose screen, 48 h (100 = growth as untreated, 0 = no growth, -100 = all killed)
# Experimental setup: 10 µM unless noted
Compounds without any hit were thinned out: in the full panel of roughly 83,000, 20% have a hit.
Answer with a number only, understood to be in %.

{"Molecule": "NS(=O)(=O)c1ccc(Nc2nc(Nc3ccccc3)nc3nnc(SCC(=O)NC4CCCCC4)n23)cc1", "Measurement unit": "%", "growth": 105}
{"Molecule": "CC1(C)CC[C@]2(C(=O)N3CCOCC3)CC[C@]3(C)C(=CC[C@@H]4[C@@]5(C)C/C(=C/c6ccco6)C(=O)C(C)(C)[C@@H]5CC[C@]43C)[C@@H]2C1", "Measurement unit": "%", "growth": 95.3}
{"Molecule": "Cc1ccc2c(c1)Oc1nc(N)c(C#N)c(N)c1C2Sc1ccc(F)cc1 (configuration not stated)", "Measurement unit": "%", "growth": -96.9}
{"Molecule": "CC(Nc1c(C#N)cnc2ccc(-c3cnc(N)nc3)cc12)c1ccccc1 (configuration not stated)", "Measurement unit": "%", "growth": -17}
{"Molecule": "COc1cc(Cn2cc3c(c2)-c2onc(CN4CCOCC4)c2CC3)cc(OC)c1OC", "Measurement unit": "%", "growth": 93}

Moving on to another molecule below.
# input Given `CC[C@]12C=CCN3CC[C@@]4(c5cc(NC(=O)COc6cc(O)c7c(=O)cc(-c8ccccc8)oc7c6)c(OC)cc5N(C)[C@H]4[C@@](O)(C(=O)OC)[C@@H]1OC(C)=O)[C@@H]32` , state its recorded growth.
# output -85.3

###

# Tested on: NCI-H460 lung
# Assay remarks: NCI-60 one-dose screen, 48 h
# Experimental setup: 10 µM unless noted
Compounds without any hit were thinned out: in the full panel of roughly 83,000, 20% have a hit. Activity calls are given as the source filed them. How the source made its calls: active means growth percent below 10; inactive means the rest.
Can you answer with just one of these options? 1 (active), 0 (inactive)

{"Molecule": "Cc1ccc(-n2cc(/C=N/NC(=O)c3ccncc3)c(-c3ccc(S(C)(=O)=O)cc3)n2)cc1", "Group": 0}
{"Molecule": "C[C@@H](Nc1ncnc2ccc(-c3cnc(Cl)c(NS(C)(=O)=O)c3)cc12)c1ccccc1", "Group": 0}
{"Molecule": "C=CCn1c(SCC(=O)Nc2ccc(C(=O)/C=C/c3ccc(Br)cc3)cc2)nnc1-c1c[nH]c2ccccc12", "Group": 0}

# input Per the assay record, what outcome was assigned to `Nc1ncc(-c2ccc3ncnc(N4CCc5cc(F)c(Cl)cc54)c3c2)cn1` ?
# output 0

# input Called result for CC(Nc1c(C#N)cnc2ccc(-c3cnc(N)nc3)cc12)c1ccccc1 (configuration not stated)
# output 0

# input Check the results log: what was the call for `Cc1ccc(-c2cc3nc(C(Cl)Cl)nc(C)n3n2)cc1` ?
# output 0

# input Please indicate how the test categorized `CC(C)C[C@@H]1N[C@@]2(C(=O)Nc3ccccc32)[C@@H](c2ccc(F)cc2)[C@@H]1C(=O)c1ccc(O)cc1` .
# output 0

# input What is the recorded call for this molecule in the test? O=C1CCCC2=C1C(c1c[nH]c3ccc(Br)cc13)Cc1cc(Br)ccc1N2 (configuration not stated)
# output 0

# input State the result this test recorded for `CN(C)CCCOc1ccc2c(c1)CN(C(=O)c1cc(C(=O)N3Cc4cccc(F)c4C3)ccc1O)C2` .
# output 0

# input Check the results log: what was the call for `COc1ccc(COc2ccc(/C=C3\C(=O)Nc4ccccc43)cc2OC)cc1` ?
# output 0

###

# Test system: SF-268 CNS
# Assay remarks: NCI-60 one-dose screen, 48 h (100 = growth as untreated, 0 = no growth, -100 = all killed)
# Experimental setup: 10 µM unless noted
The panel holds about 83,000 compounds, 20% with a hit somewhere; the sample as a whole holds those more often.
Assign classes using reported growth values and the ranges low band (below 60%), middle band (60% to below 90%), high band (90% or more), please.

Use the examples below as a reference point.
{"Compound": "CCOC(=O)c1c(Nc2ccccc2)nn2c(-c3ccc(OC)cc3)ccnc12", "Group": "high band"}
{"Compound": "COc1c(N2CC3CCCNC3C2)c(F)cc2c(=O)c(C(=O)N/N=C/c3ccc(Br)cc3)cn(C3CC3)c12 (stereo not drawn)", "Group": "middle band"}
{"Compound": "CN1CCC(n2cc(Nc3ncc4c(=O)n(-c5c(Cl)cccc5Cl)cc(Br)c4n3)cn2)CC1", "Group": "low band"}
{"Compound": "NC(N)=Nc1ccc(Oc2cccc(NC(N)=Nc3ccc(Cl)c(C(F)(F)F)c3)c2)cn1", "Group": "low band"}
{"Compound": "O=C(Nc1nc2ccc([N+](=O)[O-])cc2s1)Nc1ccccc1Br", "Group": "low band"}

# input Hello team, could you let me know which band the following compound falls into: `Cn1cc(-c2nc(N)nnc2-c2c[nH]c3ccccc23)c2cc(Br)ccc21`
# output low band

# input Would you mind sorting `COc1cc(Nc2c(C#N)cnn3cc(-c4cnn(CC(C)(C)O)c4)cc23)ccc1Cl` into the appropriate category?
# output low band

# input Form: Item = `Cc1cc(S(=O)(=O)N(C)C)cc(NCC(=O)NC(=O)NCC(C)C)c1C` ; Class = ?
# output middle band

# input Kindly state the category for this compound: `CC1=N[C@@H]2CN(C(=O)OC(C)(C)C)C[C@@H]2n2c1cc1ccccc1c2=O`
# output high band

# input GET /class?item= `Clc1cccc(/C=N/Nc2nc(N/N=C/c3cccc(Cl)c3Cl)nc(N3CCCCC3)n2)c1Cl`
# output middle band

# input Class label required: `O=C1[C@@H]2Cc3c([nH]c4ccccc34)[C@H](c3c(Cl)cccc3Cl)N2C(=O)CN1C1CCN(CC2CCCCC2)CC1`
# output middle band

###

# System: K-562 leukemia
# Assay remarks: NCI-60 one-dose screen, 48 h
# Experimental setup: 10 µM unless noted
Compounds without any hit were thinned out: in the full panel of roughly 83,000, 20% have a hit. The source made the active and inactive calls. How the source made its calls: active means growth percent below 10; inactive means the rest.
// allowed return values: active, inactive

{"Molecule": "CS(=O)(=O)Nc1cc(-c2ccc3ncc(C#N)c(NCc4ccccc4F)c3c2)cnc1Cl", "Study system": "K-562 leukemia", "Group": "inactive"}

# input Given `Nc1ccccc1NC(=O)c1ccc(NC(=O)C/C=C/c2cccnc2)cn1` , state the outcome it received in this test.
# output inactive

# input # outcome recorded in this test, key = `CCOC(=O)c1c(NC(=O)c2ccccc2C(F)(F)F)sc2c1CCC(=O)C2`
# output inactive

###

# Test system: OVCAR-3 ovarian
# Assay remarks: NCI-60 one-dose screen, 48 h
# Experimental setup: 10 µM unless noted
This is part of a sample that, as a whole, favours compounds with a hit. Of some 83,000 tested, about 20% had one in any assay. Activity calls are given as the source filed them. How the source made its calls: active means growth percent below 10; inactive means the rest.
The categories you may choose from are active, inactive

Reference set, count: 5
{"Compound": "O=C(NNc1nc2cc(F)c(F)cc2n2c(CN3CC4CNCC4C3)ccc12)c1cnccn1 (stereo not given)", "Group": "inactive"}
{"Compound": "Nc1nc(N)c2c(n1)NC(c1ccc(Cl)cc1)CC(c1ccc(Nc3nc(NCCO)nc(N4CCOCC4)n3)cc1)=N2 (stereo not given)", "Group": "inactive"}
{"Compound": "C=CCn1c(SCC(=O)Nc2ccc(C(=O)/C=C/c3cc(OC)c(OC)c(OC)c3)cc2)nnc1-c1c[nH]c2ccccc12", "Group": "active"}
{"Compound": "COc1cc(-c2nn(C(C)(C)C)cc2-c2ccnc(NCCCNS(=O)(=O)c3ccc(C)cc3)n2)ccc1Cl", "Group": "inactive"}
{"Compound": "C=CCn1c(SCC(=O)Nc2ccc(C(=O)/C=C/c3ccc(Br)cc3)cc2)nnc1-c1c[nH]c2ccccc12", "Group": "inactive"}

# input Recorded call for COc1c(N2CC3CCCNC3C2)c(F)cc2c(=O)c(C(=O)N/N=C/c3ccc4c(c3)OCO4)cn(C3CC3)c12 (stereo not given) ?
# output inactive

# input Lab log entry: `CS(=O)(=O)c1ncc(-c2ccccc2)cn1` — outcome as called in the assay?
# output inactive

# input Can you look up the reported call for `NC/C(=C/F)COc1ccc2nc(NCc3cccnc3)oc2c1` for me?
# output inactive

# input Name the outcome recorded for `COc1cc(OC)cc(C(=O)Nc2cccc(C#Cc3cccc4[nH]nc(N)c34)c2)c1` in the assay.
# output inactive

# input What call does the record list for `CS(=O)(=O)Nc1cc(-c2ccc3ncc(C#N)c(NCc4cccc(F)c4)c3c2)cnc1Cl` ?
# output active

# input Recorded test outcome, item `CN(C)CCNC(=O)c1ccc(-c2nc3ccc4[nH]ncc4c3c3c2COCC3)cc1`
# output active

# input Record lookup: outcome of this test for `NS(=O)(=O)c1ccc(Nc2nc(N/N=C/c3ccc(Cl)cc3)nc(Nc3ccccc3)n2)cc1` ?
# output inactive

# input What was the test verdict on `Cc1ccc(C2=NN(C)C(=O)C3(CCCC3)C2)cc1` ?
# output inactive
